test: BSK_LPS_SRB: Viability Assessment in the BioMAP Diversity Plus: LPS Assay (AID 2283079); settings: primary human HUVEC with PBMC;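 further: total protein by sulforhodamine B absorbance as a cytotoxicity measure; measured one day after compound addition; fitted in both directions against DMSO so loss or gain of signal counts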
Activity calls are given as the source filed them. How the source made its calls: active means hit-call score of the fitted dose curve at least 0.9, where 1 is the maximum; inactive means score below 0.9.
Labels: active, inactive

{"columns": ["compound", "qualitative label"],
 "data": [
  ["CCCCC(CC)COC(=O)c1ccc(C(=O)OCC(CC)CCCC)cc1 (centres undefined)", "inactive"],
  ["O=C1OC(=O)C2C3C=CC(C3)C12 (centres undefined)", "inactive"],
  ["O=P(OC(CCl)CCl)(OC(CCl)CCl)OC(CCl)CCl", "inactive"],
  ["CC[C@H]1CC[C@H](NCc2cc3c(cc2OC)[C@H]2C[C@H]2C(=O)N3C)[C@H](c2ccccc2)N1", "inactive"],
  ["Nc1ccc(Nc2ccccc2)cc1", "inactive"],
  ["CCOCCOCCOCCO", "inactive"],
  ["CCCC(=O)OCC", "inactive"],
  ["CCCCCCCCCCCCCCCO", "active"],
  ["CC(=O)OCCC(C)C", "inactive"],
  ["Nc1nc2ncc(CNc3ccc(C(=O)N[C@@H](CCC(=O)O)C(=O)O)cc3)nc2c(=O)[nH]1", "inactive"],
  ["O=C1CCC(N2C(=O)c3ccccc3C2=O)C(=O)N1 (centres undefined)", "inactive"],
  ["CCC(C)(C)C(=O)O[C@H]1C[C@@H](C)C=C2C=C[C@H](C)[C@H](CC[C@@H]3C[C@@H](O)CC(=O)O3)[C@H]21", "active"],
  ["On1ccccc1=S", "active"],
  ["CCOC(=O)COc1ccc2c(c1)CC(NCC(O)c1cccc(Cl)c1)CC2 (centres undefined)", "active"]
]}

====

target: Bile acid receptor (Homo sapiens) (UniProt Q96RI1); test: ATG_IR1_CIS: Attagene CIS-FACTORIAL HepG2 Assay for human Nuclear Receptor Subfamily 1 Group H Member 4 (NR1H4), IR1 submotif (AID 2282946); settings: IR1 reporter transcription, actives raise or lower the signal
Sequence (Q96RI1 whole entry, looked up): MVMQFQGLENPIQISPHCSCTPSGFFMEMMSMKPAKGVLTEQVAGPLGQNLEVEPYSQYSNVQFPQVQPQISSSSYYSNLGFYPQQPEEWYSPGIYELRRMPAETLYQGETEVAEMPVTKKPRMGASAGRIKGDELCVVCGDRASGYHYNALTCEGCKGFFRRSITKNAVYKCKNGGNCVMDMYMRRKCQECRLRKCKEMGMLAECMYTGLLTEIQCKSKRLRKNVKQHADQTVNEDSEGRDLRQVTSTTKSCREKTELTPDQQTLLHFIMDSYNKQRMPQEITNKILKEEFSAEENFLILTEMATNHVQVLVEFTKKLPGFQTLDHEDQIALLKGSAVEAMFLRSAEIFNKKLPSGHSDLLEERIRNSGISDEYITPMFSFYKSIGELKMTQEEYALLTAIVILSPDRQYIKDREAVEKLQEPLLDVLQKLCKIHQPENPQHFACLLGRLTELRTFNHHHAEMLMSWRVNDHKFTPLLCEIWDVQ
Calls of active or inactive are those of the source. Rule for the calls: active = hit-call score of the fitted dose curve at least 0.9, where 1 is the maximum; inactive = score below 0.9.

{"columns": ["compound", "AC50"],
 "data": [
  ["CCOc1cccc(-n2cc(C(=O)N3CCN(c4cc(C(=O)O)c5ccccc5c4)CC3)nc2-c2ccc(C)cc2)c1", "24.8 µM (active)"],
  ["CC(O)CN(CCN(CC(C)O)CC(C)O)CC(C)O (centres undefined)", "inactive"],
  ["CCOCCO", "inactive"],
  ["COCCOCCOCCOC", "inactive"],
  ["Cc1ccc(O)cc1", "inactive"],
  ["CCOC(=O)c1ccc(C2CCC(NC[C@H](O)COc3ccc(O)c(NS(C)(=O)=O)c3)CC2)cc1 (some centres undefined)", "53.2 µM (active)"],
  ["Oc1ccc2c(c1)-c1ccccc1C2", "1.3 µM (active)"],
  ["O=C1CCCCCN1", "inactive"],
  ["CCc1cc(SCc2sc(-c3ccc(C(F)(F)F)cc3)nc2CN2CCN(c3ccc(OC)cc3)CC2)ccc1OCC(=O)O", "3.93 µM (active)"],
  ["CCNc1ccccc1", "inactive"],
  ["CC(C)c1cccc(C(C)C)c1N1C(=O)c2ccc(O)cc2C1=O", "69.5 µM (active)"],
  ["COCCOc1cc2cc(C(=O)NC3CCN(C(C)C)CC3)n(CC(=O)Nc3ccc(Cl)cn3)c2cn1", "inactive"],
  ["CCCCC(CC)COC(=O)CCCCCCCCC(=O)OCC(CC)CCCC (centres undefined)", "inactive"],
  ["Cc1ccc(C)c(O)c1", "inactive"],
  ["COc1cccc(-c2ccc(/C=C\\CN3CCCCCC3)cc2Cl)c1", "inactive"],
  ["CC1(C)C(=O)N(Br)C(=O)N1Br", "inactive"],
  ["COc1ccc2sc(C(=O)Nc3nnn[nH]3)c(OC(C)C)c2c1", "67.6 µM (active)"],
  ["Cc1c(-c2cccnc2)c2ccccc2n1CCCCC(=O)O", "inactive"],
  ["CCN(C(=O)c1cc(C)cc(OC[C@H](C)Nc2ccncc2)c1)C(C)C", "42 µM (active)"],
  ["CCOCCOCCOCCO", "inactive"],
  ["Cc1[nH]cnc1C[C@H]1CCc2c(C)c3ccccc3n2C1=O", "inactive"],
  ["CCOC(=O)CC(CC(=O)OCC)(OC(C)=O)C(=O)OCC", "inactive"],
  ["Cn1c(=O)cc(Oc2ccc(F)cc2F)c2cnc(NCC(C)(C)O)nc21", "inactive"],
  ["CCCCC(CC)COC(=O)c1ccc(C(=O)OCC(CC)CCCC)cc1 (centres undefined)", "inactive"]
]}
